Measured values drawn from ChEMBL document CHEMBL4373667 for this set.

test_method_notes: Hemolytic activity in human Erythrocytes at 50 +/- 0.8 uM relative to control
Assay type: ADME, cell-based, Erythrocyte
condition_details: read-out: Activity
Provide the reported hemolysis at 50 uM of each item.
A bare number is not enough; add the unit after it.

{"line_notation": "CC(=O)OC[C@H]1O[C@H](OC(=O)[C@]2(C)CCC[C@@]3(C)[C@@H]4CC[C@@]5(C)C[C@]4(CC[C@@H]32)CC5=O)[C@@H](OC(C)=O)[C@@H](OC(C)=O)[C@@H]1OC(C)=O", "hemolysis at 50 uM": "0%"}
{"line_notation": "CC(=O)OC[C@H]1O[C@H](OC(=O)CCCCCOC(=O)[C@]2(C)CCC[C@@]3(C)[C@@H]4CC[C@@]5(C)C[C@]4(CC[C@@H]32)CC5=O)[C@@H](OC(C)=O)[C@@H](OC(C)=O)[C@@H]1OC(C)=O", "hemolysis at 50 uM": "1.7%"}

// moving on: another record for hemolysis at 50 uM
Field hemolysis at 50 uM (entry `CC(=O)OC[C@H]1O[C@@H](OC(=O)CCCCCOC(=O)[C@]2(C)CCC[C@@]3(C)[C@@H]4CC[C@@]5(C)C[C@]4(CC[C@@H]32)CC5=O)[C@H](OC(C)=O)[C@@H](OC(C)=O)[C@H]1OC(C)=O` ) reads 0%

###

Tested on: M-HeLa
test_method_notes: Antiproliferative activity against human M-HeLa cells assessed as reduction in cell viability after 24 hrs by DAPI/propidium iodide staining based assay
Assay type: functional
Provide the reported pIC50 of each item.
Give bare numbers, as −log10 of the molar value.

{"line_notation": "CC(=O)OC[C@H]1O[C@@H](OC(=O)CCCCCCCCCOC(=O)[C@]2(C)CCC[C@@]3(C)[C@@H]4CC[C@@]5(C)C[C@]4(CC[C@@H]32)CC5=O)[C@H](OC(C)=O)[C@@H](OC(C)=O)[C@H]1OC(C)=O", "pIC50": 4.57}

// moving on: another record for pIC50
Field pIC50 (entry `C[C@@]12CC[C@@H]3[C@@](CC[C@H]4[C@@]3(C)CCC[C@@]4(C)C(=O)O[C@@H]3O[C@H](CO)[C@@H](O)[C@H](O)[C@H]3O)(CC1=O)C2` ) reads 4.49

###

Tested on: M-HeLa
test_method_notes: Antiproliferative activity against human M-HeLa cells assessed as reduction in cell viability after 24 hrs by DAPI/propidium iodide staining based assay
Assay type: functional
Provide the reported IC50 of each item.
One number for each entry, in µM.

{"line_notation": "CC(=O)OC[C@H]1O[C@H](OC(=O)CCCCCCCCCOC(=O)[C@]2(C)CCC[C@@]3(C)[C@@H]4CC[C@@]5(C)C[C@]4(CC[C@@H]32)CC5=O)[C@@H](OC(C)=O)[C@@H](OC(C)=O)[C@@H]1OC(C)=O", "measured_property": "IC50", "endpoint_result": 18}

// moving on: another record for IC50
Field IC50 (entry `CC(=O)OC[C@H]1O[C@H](OC(=O)[C@]2(C)CCC[C@@]3(C)[C@@H]4CC[C@@]5(C)C[C@]4(CC[C@@H]32)CC5=O)[C@@H](OC(C)=O)[C@@H](OC(C)=O)[C@@H]1OC(C)=O` ) reads 15.1

###

Tested on: M-HeLa
test_method_notes: Antiproliferative activity against human M-HeLa cells assessed as reduction in cell viability after 24 hrs by DAPI/propidium iodide staining based assay
Format: functional
Provide the reported pIC50 of each item.
One number for each entry, as −log10 of the molar value.

{"line_notation": "CC(=O)N[C@H]1[C@H](OC(=O)CCCCCOC(=O)[C@]2(C)CCC[C@@]3(C)[C@@H]4CC[C@@]5(C)C[C@]4(CC[C@@H]32)CC5=O)O[C@H](COC(C)=O)[C@@H](OC(C)=O)[C@@H]1OC(C)=O", "pIC50": 4.34}
{"line_notation": "CC(=O)OC[C@H]1O[C@H](OC(=O)CCCCCOC(=O)[C@]2(C)CCC[C@@]3(C)[C@@H]4CC[C@@]5(C)C[C@]4(CC[C@@H]32)CC5=O)[C@@H](OC(C)=O)[C@@H](OC(C)=O)[C@@H]1OC(C)=O", "pIC50": 4.96}
{"line_notation": "C[C@@]12CC[C@@H]3[C@@](CC[C@H]4[C@@]3(C)CCC[C@@]4(C)C(=O)O[C@@H]3O[C@H](CO)[C@H](O)[C@H](O)[C@H]3O)(CC1=O)C2", "pIC50": 4.28}
{"line_notation": "COC(=O)[C@H]1O[C@@H](OC(=O)[C@]2(C)CCC[C@@]3(C)[C@@H]4CC[C@@]5(C)C[C@]4(CC[C@@H]32)CC5=O)[C@H](OC(C)=O)[C@@H](OC(C)=O)[C@@H]1OC(C)=O", "pIC50": 4.59}

Value sought for every listed molecule: pIC50.
1. CC(=O)N[C@H]1[C@H](OC(=O)[C@]2(C)CCC[C@@]3(C)[C@@H]4CC[C@@]5(C)C[C@]4(CC[C@@H]32)CC5=O)O[C@H](COC(C)=O)[C@@H](OC(C)=O)[C@@H]1OC(C)=O
2. CC(=O)OC[C@H]1O[C@@H](OC(=O)CCCCCOC(=O)[C@]2(C)CCC[C@@]3(C)[C@@H]4CC[C@@]5(C)C[C@]4(CC[C@@H]32)CC5=O)[C@H](OC(C)=O)[C@@H](OC(C)=O)[C@H]1OC(C)=O

1. 4.74
2. 5.00

###

test_method_notes: Hemolytic activity in human Erythrocytes at 100 +/- 7.8 uM relative to control
Assay type: ADME, cell-based, Erythrocyte
condition_details: read-out: Activity
measured_property: hemolysis at 100 uM
A bare number is not enough; add the unit after it.

Answered examples (2):
{"line_notation": "CC(=O)OC[C@H]1O[C@@H](OC(=O)CCCCCOC(=O)[C@]2(C)CCC[C@@]3(C)[C@@H]4CC[C@@]5(C)C[C@]4(CC[C@@H]32)CC5=O)[C@H](OC(C)=O)[C@@H](OC(C)=O)[C@H]1OC(C)=O", "endpoint_result": "0%"}
{"line_notation": "CC(=O)OC[C@H]1O[C@H](OC(=O)CCCCCOC(=O)[C@]2(C)CCC[C@@]3(C)[C@@H]4CC[C@@]5(C)C[C@]4(CC[C@@H]32)CC5=O)[C@@H](OC(C)=O)[C@@H](OC(C)=O)[C@@H]1OC(C)=O", "endpoint_result": "5.5%"}

Field hemolysis at 100 uM (entry `CC(=O)OC[C@H]1O[C@H](OC(=O)[C@]2(C)CCC[C@@]3(C)[C@@H]4CC[C@@]5(C)C[C@]4(CC[C@@H]32)CC5=O)[C@@H](OC(C)=O)[C@@H](OC(C)=O)[C@@H]1OC(C)=O` ) reads 0%
